Tested on: CCRIS mutagenicity, Ames/micronucleus/aberration tests
Experiment: CCRIS mutagenicity studies
Settings: Test System: AMES SALMONELLA TYPHIMURIUM; Strain/Indicator: TA98; Metabolic Activation: RAT, LIVER, S-9, AROCLOR 1254; Method: STANDARD PLATE
Text: The CCRIS database contains chemical records with carcinogenicity, mutagenicity, tumor promotion, and tumor inhibition test results. It was developed by the National Cancer Institute (NCI). Data are derived from studies cited in primary journals, current awareness tools, NCI reports, and other sources. Test results have been reviewed by experts in carcinogenesis and mutagenesis. CCRIS provides historical information from the years 1985 - 2011. It is no longer updated. […]
Activity calls are given as the source filed them. How the calls were made is not given here. Where a SMILES comes first, the peptide text is derived from it.
experimentalReadout: mutagenic call

A selection of reference data follows.
[
  {
    "molecule": "O=C(c1ccccc1)C1OC1c1ccc([N+](=O)[O-])cc1 (configuration not stated)",
    "mutagenic call": "inactive; negative"
  },
  {
    "molecule": "c1ccc(-c2ccccc2)cc1",
    "mutagenic call": "inactive; negative"
  },
  {
    "molecule": "c1ccc2c(c1)ccc1cc3cnccc3cc12",
    "mutagenic call": "active; positive"
  },
  {
    "molecule": "CC(=O)O[C@H]1C[C@@H]2C(COC(=O)CC(C)C)=CO[C@@H](OC(=O)CC(C)C)[C@@H]2[C@@]12CO2",
    "mutagenic call": "inactive; negative"
  },
  {
    "molecule": "C=C(C)C(=O)OCCOCCOC(=O)C(=C)C",
    "mutagenic call": "inactive; negative"
  },
  {
    "molecule": "CN1C(=O)CN=C(c2ccccc2)c2cc(Cl)ccc21",
    "mutagenic call": "inactive; negative"
  },
  {
    "molecule": "Cc1ccc(N=CN(C)C=Nc2ccc(C)cc2C)c(C)c1",
    "mutagenic call": "inactive; negative"
  },
  {
    "molecule": "CC(=O)Nc1ccc(OCC(O)CNC(C)C)cc1 (configuration not stated)",
    "mutagenic call": "inactive; negative"
  }
]

Query :: Give the reported mutagenic call for O=[N+]([O-])c1cc2cc3ccc4cccc5ccc(c2o1)c3c45 (system: CCRIS mutagenicity, Ames/micronucleus/aberration tests).
Result :: active; positive

Query :: What reported mutagenic call corresponds to O=[N+]([O-])c1ccc2cc(O)c3cccc4ccc1c2c43 on CCRIS mutagenicity, Ames/micronucleus/aberration tests?
Result :: active; positive

Query :: Query mutagenic call on CCRIS mutagenicity, Ames/micronucleus/aberration tests for C1CCC2CCCCC2C1 (configuration not stated)
Result :: inactive; negative

Query :: What reported mutagenic call corresponds to O=S(O)(O)=S on CCRIS mutagenicity, Ames/micronucleus/aberration tests?
Result :: inactive; negative

Query :: Any idea what mutagenic call came out for C/C=N/O on CCRIS mutagenicity, Ames/micronucleus/aberration tests?
Result :: inactive; negative

Query :: Lab note: need mutagenic call for ClNc1nc(NCl)nc(NCl)n1 on CCRIS mutagenicity, Ames/micronucleus/aberration tests, anyone have it?
Result :: inactive; negative

Query :: Lab note: need mutagenic call with CCRIS mutagenicity, Ames/micronucleus/aberration tests for entry CC1CCC(C(C)C)C(=O)C1 (configuration not stated) , please look it up.
Result :: inactive; negative

Query :: Lab note: need mutagenic call for CC(C)C[C@H](NC(=O)[C@H](Cc1ccccc1)NC(=O)CNC(=O)CN)C(=O)O (H-GGFL-OH) on CCRIS mutagenicity, Ames/micronucleus/aberration tests, anyone have it?
Result :: inactive; negative

Query :: Could you share what mutagenic call was measured for O=NN1CCSC1C(O)C(O)C(O)C(O)CO (configuration not stated) , tested on CCRIS mutagenicity, Ames/micronucleus/aberration tests?
Result :: inactive; negative

Query :: Any idea what mutagenic call came out for CC(C)=CC1C(C(=O)OCc2coc(Cc3ccccc3)c2)C1(C)C (configuration not stated) on CCRIS mutagenicity, Ames/micronucleus/aberration tests?
Result :: inactive; negative

Query :: Request body: readout mutagenic call, system CCRIS mutagenicity, Ames/micronucleus/aberration tests, query O=C1CCC(=O)N1c1ccc(Cl)c(Cl)c1 . Return the value.
Result :: inactive; negative

Query :: GET /values?readout=mutagenic call&system=CCRIS mutagenicity, Ames/micronucleus/aberration tests&item= O=C(O)COc1ccc2ccccc2c1
Result :: inactive; negative

Query :: Which mutagenic call is reported with CCRIS mutagenicity, Ames/micronucleus/aberration tests for this entry: C1CCC2OCCOCCOCCOCCOC3CCCCC3OCCOCCOCCOCCOC2C1 (configuration not stated) ?
Result :: inactive; negative

Query :: Give recorded mutagenic call with CCRIS mutagenicity, Ames/micronucleus/aberration tests for the following molecule: O=[N+]([O-])c1cc2c(cc1O)[nH]c1ccccc12
Result :: active; positive

Query :: Any idea what mutagenic call came out for COc1ccc(N=O)cc1 on CCRIS mutagenicity, Ames/micronucleus/aberration tests?
Result :: active; positive

Query :: State its mutagenic call on CCRIS mutagenicity, Ames/micronucleus/aberration tests: O=NO
Result :: inactive; negative

Query :: Quick check: mutagenic call on CCRIS mutagenicity, Ames/micronucleus/aberration tests, item CCCCCCCCCCCCOC(=O)CCSCCC(=O)OCCCCCCCCCCCC ?
Result :: inactive; negative

Query :: What measured mutagenic call is associated with CCN(CC)c1ccc(N=Nc2ccc([N+](=O)[O-])cc2)cc1 on CCRIS mutagenicity, Ames/micronucleus/aberration tests?
Result :: active; positive

Query :: Query mutagenic call on CCRIS mutagenicity, Ames/micronucleus/aberration tests for c1cc2ccc3cc4ccoc4c4ccc(c1)c2c34
Result :: active; positive

Query :: For the record COC(=O)Nc1nc2ccc(/C(=N/O)c3ccc(F)cc3)cc2[nH]1 , what value of mutagenic call is listed for CCRIS mutagenicity, Ames/micronucleus/aberration tests?
Result :: active; positive

Query :: Report mutagenic call for O=C(O)c1cc([N+](=O)[O-])cc2cccnc12 tested on CCRIS mutagenicity, Ames/micronucleus/aberration tests.
Result :: active; positive

Query :: What is its mutagenic call for CCRIS mutagenicity, Ames/micronucleus/aberration tests? Entry: CCNc1nc(Cl)nc(NC(C)C)n1
Result :: inactive; negative
